target: TRPA1 (Mus musculus); assay: Ca2+ imaging and whole-cell patch clamp in TRPA1-transfected CHO cells
Sequence (Q8BLA8 whole entry): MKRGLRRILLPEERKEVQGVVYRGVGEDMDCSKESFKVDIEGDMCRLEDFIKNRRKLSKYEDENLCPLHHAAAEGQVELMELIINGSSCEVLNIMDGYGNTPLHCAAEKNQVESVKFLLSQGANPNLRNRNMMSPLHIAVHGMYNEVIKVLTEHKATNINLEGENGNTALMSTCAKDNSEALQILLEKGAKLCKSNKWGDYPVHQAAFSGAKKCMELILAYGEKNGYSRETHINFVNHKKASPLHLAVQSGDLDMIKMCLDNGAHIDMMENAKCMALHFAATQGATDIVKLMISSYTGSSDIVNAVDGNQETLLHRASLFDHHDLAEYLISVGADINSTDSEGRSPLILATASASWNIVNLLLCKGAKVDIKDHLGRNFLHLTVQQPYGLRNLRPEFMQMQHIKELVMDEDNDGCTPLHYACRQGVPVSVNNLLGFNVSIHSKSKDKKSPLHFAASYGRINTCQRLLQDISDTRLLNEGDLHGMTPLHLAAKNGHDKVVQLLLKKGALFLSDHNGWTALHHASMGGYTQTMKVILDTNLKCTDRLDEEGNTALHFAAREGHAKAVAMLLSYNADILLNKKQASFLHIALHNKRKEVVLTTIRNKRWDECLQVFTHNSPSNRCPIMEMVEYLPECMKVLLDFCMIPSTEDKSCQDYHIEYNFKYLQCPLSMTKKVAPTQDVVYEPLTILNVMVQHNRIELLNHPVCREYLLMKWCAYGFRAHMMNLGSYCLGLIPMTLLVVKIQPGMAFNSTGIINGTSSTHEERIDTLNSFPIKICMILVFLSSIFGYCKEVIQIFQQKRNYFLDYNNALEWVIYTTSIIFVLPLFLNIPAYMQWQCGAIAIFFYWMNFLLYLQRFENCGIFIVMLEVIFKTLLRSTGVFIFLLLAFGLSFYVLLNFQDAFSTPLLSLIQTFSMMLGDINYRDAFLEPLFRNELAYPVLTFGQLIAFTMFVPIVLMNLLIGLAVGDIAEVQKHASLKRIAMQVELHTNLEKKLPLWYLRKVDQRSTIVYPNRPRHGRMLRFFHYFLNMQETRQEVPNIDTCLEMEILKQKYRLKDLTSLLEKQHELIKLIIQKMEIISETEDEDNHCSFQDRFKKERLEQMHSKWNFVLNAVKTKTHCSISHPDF
QUANTITY: pEC50
The read-out pEC50 is expressed as -log10 of concentration in moles per litre.

Task item: Please tell me: pEC50 of COc1ccc(C(=O)c2c(C)n(CCN3CCOCC3)c3cc(I)ccc23)cc1 [AM630] , system TRPA1 (Mus musculus)?
Reply: 5.70

Sourced from paper PMC3130079
